From: a polymer gas permeability compilation

metric: O2 permeability (Barrer)

Worked examples follow.
*Oc1c(C)cc(*)c([N+](=O)[O-])c1C (repeat unit) :: 11.5
*Oc1c(C)cc(C(C)(C)c2cc(C)c(OC(=O)c3cccc(C(*)=O)c3)c(C)c2)cc1C (repeat unit) :: 3.26

A: *Oc1ccc(S(=O)(=O)c2ccc(Oc3ccc(C(C)(C)c4ccc(*)cc4)cc3)cc2)cc1 (repeat unit)
B: *c1ccc(Oc2cc3c(cc2C)OC2(CC3(C)C)CC(C)(C)c3cc(Oc4ccc(*)cc4)c(C)cc3O2)cc1 (repeat unit)
Input line: Kindly compare A with B and tell me which has the lower O2 permeability figure. Response format: the label of the selected entry.
Output line: A
(A: 1.4 Barrer, B: 6.17 Barrer)

====

metric: N2 permeability (Barrer)

a: *CN1CN(*)Cc2cc3c(cc21)C1c2ccccc2C3c2cc(*)c(*)cc21 (repeat unit)
b: *c1c(C)c2c(c(N3C(=O)c4ccc(C(c5ccc6c(c5)C(=O)N(*)C6=O)(C(F)(F)F)C(F)(F)F)cc4C3=O)c1C)C(C)(C)CC2 (repeat unit)
c: *c1cc(C)c(C)c(N2C(=O)c3ccc(Oc4cc(C)ccc4Oc4ccc5c(c4)C(=O)N(*)C5=O)cc3C2=O)c1C (repeat unit)
d: *Oc1ccc(C(C)(C)c2ccc(OCCC(*)O)cc2)cc1 (repeat unit)
Input line: Could you arrange the 4 compounds above by N2 permeability, starting with the largest number? Provide your answer as the labels ordered per the instruction.
Output line: a, b, c, d
(a: 409 Barrer, b: 58.6 Barrer, c: 0.65 Barrer, d: 0.019 Barrer)

====

metric: CH4 permeability (Barrer)

Answered cases to consult:
*c1ccc(Oc2ccc(C3(c4ccc(Oc5ccc(N6C(=O)c7ccc(C(c8ccc9c(c8)C(=O)N(*)C9=O)(C(F)(F)F)C(F)(F)F)cc7C6=O)c(C)c5)cc4)c4ccccc4-c4ccccc43)cc2)cc1C (repeat unit) :: 0.34
*C(=C(*)c1ccc2c(c1)C(C)(C)c1ccccc1-2)c1ccc([Si](C)(C)C)cc1 (repeat unit) :: 525
*C(=C(*)c1ccc2c(c1)C(C)(C)CC2(C)C)c1ccc(F)cc1 (repeat unit) :: 34300
*OC(=O)c1cccc(C(=O)Oc2ccc(C(C)(C)c3ccc(O*)c(C)c3)cc2C)c1 (repeat unit) :: 0.044
*Oc1c(C)cc(C(C)(C)c2cc(C)c(OC(=O)c3cc(C(*)=O)cc(C(C)(C)C)c3)c(Br)c2)cc1Br (repeat unit) :: 1.06

I: *C(=C(*)c1ccc2c(c1)C(C)(C)CCC2(C)C)c1ccccc1 (repeat unit)
II: *c1cccc(-c2nnc(*)n2-c2ccccc2)c1 (repeat unit)
Input line: Which entry shows the lesser value of CH4 permeability here, I or II ? Write down the label of the entry you select.
Output line: II

====

metric: CO2 permeability (Barrer)

Example entries and their recorded answers appear below.
*c1ccc(Oc2ccc(C(c3ccc(Oc4ccc(N5C(=O)c6ccc(C(c7ccc8c(c7)C(=O)N(*)C8=O)(C(F)(F)F)C(F)(F)F)cc6C5=O)cc4C(F)(F)F)cc3)(C(F)(F)F)C(F)(F)F)cc2)c(C(F)(F)F)c1 (repeat unit) :: 22.8
*Cc1ccc(C*)c(C#N)c1 (repeat unit) :: 0.301
*c1cc(C)c(N2C(=O)c3ccc(C(c4ccc5c(c4)C(=O)N(*)C5=O)(C(F)(F)F)C(F)(F)F)cc3C2=O)c(C)c1 (repeat unit) :: 17.9

A: *C(=O)c1ccc([Si](C)(C)c2ccc(C(*)=O)cc2)cc1 (repeat unit)
B: *Oc1cc2c(cc1O*)C1(CC2(C)C)CC(C)(C)c2cc3c(cc21)Oc1c(C#N)c(*)c(*)c(C(=O)O)c1O3 (repeat unit)
Input line: Just tell me: smaller CO2 permeability value, A or B ? API: response body contains the label of the selected item.
Output line: A
(A: 22.2 Barrer, B: 2540 Barrer)

1: *Nc1ccc(Cc2ccc(NC(=O)CN3C(=O)c4ccc(C(*)=O)cc4C3=O)cc2)cc1 (repeat unit)
2: *C(=O)n1c(*)nc2cc3nc4c5ccc(*)c6c(*)ccc(c(=O)n4c3cc21)c65 (repeat unit)
Input line: Returns: the label, 1 or 2 , whose recorded CO2 permeability is the lower number. Choose, then provide that item's label.
Output line: 2
